- protocol: Bmi1 luciferase reporter increase in mESCs, primary screen, esBAF inhibitor project, mouse ES cells, Bmi1 luciferase knock-in, single point (AID 602393);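 further: 0% = median of the plate's neutral control wells and 100% = double that signal; a rise in the Bmi1 reporter signal indicates esBAF inhibition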
- experimental.setup: 24 h, at 12.5 µM, active compounds read high, 100% = twice the neutral-well signal
Among all 350,000 compounds or so, about 7,000 (2%) were called active. This is one part of a sample in which actives are shown more often than they occur.
Provide the reported reporter increase of each item.
// note: answer is a bare numeric in %

Task: Answer with the recorded reporter increase for the compound listed here: CC(=O)Nc1ccc(C(=O)CSc2nc3ccc(C)cc3[nH]2)cc1
Result: 1.14

Task: Answer with the recorded reporter increase for the compound listed here: C[C@@H]1CN([C@H](C)CO)C(=O)c2cc(C#CC3(O)CCCC3)cnc2O[C@H]1CN(C)C(=O)C1CCC1
Result: 2.77

Task: Answer with the recorded reporter increase for the compound listed here: Cc1ccn2c(-c3csc(Nc4ccc(C(=O)O)cc4)n3)c(C)nc2c1
Result: 3.65

Task: Answer with the recorded reporter increase for the compound listed here: O=C(NCCCc1ccccc1)c1cc(COc2c(F)cccc2F)on1
Result: 17.5

Task: Answer with the recorded reporter increase for the compound listed here: COc1ccccc1-c1cccc(-c2nc(C(=O)N3CCN(C)CC3)cc3c2[C@H](CCO)N([S@@](=O)C(C)(C)C)C3)c1
Result: -0.462

Task: Answer with the recorded reporter increase for the compound listed here: C[C@H](CO)N1C[C@H](C)[C@H](CN(C)C(=O)c2ccncc2)Oc2cc(C#CC3(O)CCCC3)ccc2S1(=O)=O
Result: 2.01

Task: Answer with the recorded reporter increase for the compound listed here: C[C@@H]1CCCCO[C@H](CN(C)S(=O)(=O)c2ccccc2)[C@H](C)CN([C@@H](C)CO)C(=O)c2cc(N(C)C)ccc2O1
Result: -0.863

Task: Answer with the recorded reporter increase for the compound listed here: COCC#Cc1cnc2c(c1)C(=O)N([C@@H](C)CO)C[C@@H](C)[C@@H](CN(C)C(=O)c1cccnc1)O2
Result: 3.33

Task: Answer with the recorded reporter increase for the compound listed here: COc1ccc(-c2nnc(SC(=O)N3c4ccccc4Sc4ccccc43)o2)cc1
Result: 2.78

Task: Answer with the recorded reporter increase for the compound listed here: COCC(=O)Nc1ccc2c(c1)OC[C@H](C)N(Cc1ccccc1OC)C[C@@H](C)[C@@H](OC)CN(C)C2=O
Result: 0.256

Task: Answer with the recorded reporter increase for the compound listed here: O=C(C[C@H]1C=C[C@H](NC(=O)C2CCC2)[C@H](CO)O1)NCCCN1CCOCC1
Result: 1

Task: Answer with the recorded reporter increase for the compound listed here: CC(C)NC(=O)N(C)C[C@@H]1Oc2cc(C#C[C@H](C)O)ccc2S(=O)(=O)N([C@@H](C)CO)C[C@H]1C
Result: 0.093

Task: Answer with the recorded reporter increase for the compound listed here: COc1ccc(-n2nc(C(=O)NCC(=O)N3CCN(c4ccccc4OC)CC3)c3ccccc3c2=O)c(OC)c1
Result: 30.3

Task: Answer with the recorded reporter increase for the compound listed here: Cc1ccccc1S(=O)(=O)NCC[C@@H]1CC[C@@H](NS(=O)(=O)c2ccccc2C)[C@@H](CO)O1
Result: 2.87

Task: Answer with the recorded reporter increase for the compound listed here: C[C@H](O)C#Cc1cnc2c(c1)C(=O)N([C@@H](C)CO)C[C@H](C)[C@H](CN(C)C(=O)c1ccccc1)O2
Result: -2.39

Task: Answer with the recorded reporter increase for the compound listed here: CCOc1ccc(N(CC(=O)NCCc2ccc(F)cc2)S(=O)(=O)c2ccccc2)cc1
Result: 1.13

Task: Answer with the recorded reporter increase for the compound listed here: CC(=O)c1cc(C#N)c(SCC(=O)C(C)(C)C)nc1C
Result: 50.6

Task: Answer with the recorded reporter increase for the compound listed here: C[C@@H]1CN([C@H](C)CO)C(=O)c2cc(-c3ccncc3)cnc2O[C@@H]1CN(C)C(=O)Cc1cccnc1
Result: -2.67

Task: Answer with the recorded reporter increase for the compound listed here: COc1ccc(S(=O)(=O)N2CC[C@@H]3[C@@H](CO)Nc4ccc(C#Cc5cccnc5)cc4[C@@H]32)cc1
Result: 7.74

Task: Answer with the recorded reporter increase for the compound listed here: COCCCN1C(=O)c2ccc(C(=O)OCC(=O)NCc3ccccc3OC)cc2C1=O
Result: -0.788

Task: Answer with the recorded reporter increase for the compound listed here: COc1ccc2[nH]cc(CCN3C(=O)c4ccc(C(=O)O)cc4C3=O)c2c1
Result: 77

Task: Answer with the recorded reporter increase for the compound listed here: O=C(NCCCn1ccnc1)c1cc(-c2ccccc2)on1
Result: 47.2

Task: Answer with the recorded reporter increase for the compound listed here: O=C(CSc1nc2ccccc2c(=O)n1-c1ccc(F)cc1)NC1CC1
Result: -5.85

Task: Answer with the recorded reporter increase for the compound listed here: CCn1c(SCC(=O)Nc2nccs2)nnc1-c1ccncc1
Result: -8.57

Task: Answer with the recorded reporter increase for the compound listed here: CN1c2ccc(-c3cccc(F)c3)cc2[C@H]2[C@H](CCN2C(=O)C2CCCC2)[C@@H]1CO
Result: 2.05

Task: Answer with the recorded reporter increase for the compound listed here: O=C(OCC(=O)N1CCCCCC1)c1cccc(Cl)c1Cl
Result: 46.9

Task: Answer with the recorded reporter increase for the compound listed here: CC1CCN(C(=O)COC(=O)c2cc(=O)[nH]c3ccccc23)CC1
Result: 60.1

Task: Answer with the recorded reporter increase for the compound listed here: O=C(c1cc(COc2c(F)cccc2F)on1)N1CCSCC1
Result: 53.1

Task: Answer with the recorded reporter increase for the compound listed here: O=C(CSc1nc2ccccc2c(=O)n1-c1ccccc1F)N1CCOCC1
Result: -4.38

Task: Answer with the recorded reporter increase for the compound listed here: O=C(COC(=O)c1cc(=O)[nH]c2ccccc12)NCc1cccc(Cl)c1
Result: -2.45

Task: Answer with the recorded reporter increase for the compound listed here: COc1ccccc1C#Cc1ccc2c(c1)O[C@@H](CN(C)Cc1cncnc1)[C@H](C)CN([C@@H](C)CO)S2(=O)=O
Result: 8.66

Task: Answer with the recorded reporter increase for the compound listed here: O=C(COC(=O)c1cccc(Cl)c1Cl)NC1CCCCCC1
Result: -2.51

Task: Answer with the recorded reporter increase for the compound listed here: COc1ccc(-c2nnc(SCc3cccnc3)o2)cc1
Result: 52.4

Task: Answer with the recorded reporter increase for the compound listed here: CNC[C@@H]1Oc2ccc(NS(=O)(=O)c3c(C)noc3C)cc2CC(=O)N([C@@H](C)CO)C[C@@H]1C
Result: 1.22

Task: Answer with the recorded reporter increase for the compound listed here: Cc1ccc2cc(/C=N/Nc3ccc(C(=O)O)cc3)c(Cl)nc2c1
Result: 63.2

Task: Answer with the recorded reporter increase for the compound listed here: COCc1cn(CC[C@H]2CC[C@H](NC(=O)Cc3cccnc3)[C@H](CO)O2)nn1
Result: 1.37

Task: Answer with the recorded reporter increase for the compound listed here: Cn1c(SCC(=O)Nc2nccs2)nnc1-c1cccnc1
Result: -5.27

Task: Answer with the recorded reporter increase for the compound listed here: COc1ccc(N(CCC(=O)NCCc2ccccc2)S(=O)(=O)c2ccc(C)cc2C)cc1
Result: 77.9

Entry source: PubChem BioAssay AID602393
